Assay: Metabolic stability in human microsomes assessed as parent compound remaining after 5 mins
Format: ADME, Microsome
Conditions: read-out: Stability
endpoint-label: remaining at 5 min (%)

| smiles-data | remaining at 5 min [%] |
| --- | --- |
| [2H]C([2H])([2H])C([2H])([2H])N1C([2H])([2H])C([2H])([2H])N(Cc2ccc(Nc3ncc(F)c(-c4cc(F)c5nc(C)n(C(C)C)c5c4)n3)nc2)C([2H])([2H])C1([2H])[2H] | 80.3 |
| [2H]c1nc(Nc2ncc(F)c(-c3cc(F)c4nc(C)n(C(C)C)c4c3)n2)c([2H])c([2H])c1CN1CCN(C([2H])([2H])C([2H])([2H])[2H])CC1 | 79.4 |
| [2H]C([2H])([2H])C([2H])([2H])N1CCN(Cc2ccc(Nc3ncc(F)c(-c4cc(F)c5nc(C)n(C(C)C)c5c4)n3)nc2)CC1 | 77.7 |
| CCN1CCN(Cc2ccc(Nc3ncc(F)c(-c4cc(F)c5nc(C)n(C(C)C)c5c4)n3)nc2)CC1 | 76.1 |

###

Assay: Metabolic stability in human microsomes assessed as parent compound remaining after 30 mins
Type: ADME, Microsome
Conditions: read-out: Stability
endpoint-label: remaining at 0.5 h (%)

Examples with their reported remaining at 0.5 h follow.
| smiles-data | endpoint-label | unit-info | observed-value |
| --- | --- | --- | --- |
| [2H]C([2H])([2H])C([2H])([2H])N1CCN(Cc2ccc(Nc3ncc(F)c(-c4cc(F)c5nc(C)n(C(C)C)c5c4)n3)nc2)CC1 | remaining at 0.5 h | % | 16 |
| [2H]c1nc(Nc2ncc(F)c(-c3cc(F)c4nc(C)n(C(C)C)c4c3)n2)c([2H])c([2H])c1CN1CCN(C([2H])([2H])C([2H])([2H])[2H])CC1 | remaining at 0.5 h | % | 16.4 |

I. [2H]C([2H])([2H])C([2H])([2H])N1C([2H])([2H])C([2H])([2H])N(Cc2ccc(Nc3ncc(F)c(-c4cc(F)c5nc(C)n(C(C)C)c5c4)n3)nc2)C([2H])([2H])C1([2H])[2H]
II. CCN1CCN(Cc2ccc(Nc3ncc(F)c(-c4cc(F)c5nc(C)n(C(C)C)c5c4)n3)nc2)CC1
Ask: # returns the entry with the larger remaining at 0.5 h; inputs I and II Refer to your chosen entry by its label in the reply.
Result: I
(I: 21.3%, II: 13%)

###

Experiment: Metabolic stability in human microsomes assessed as parent compound remaining after 15 mins
Format: ADME, Microsome
Conditions: read-out: Stability
endpoint-label: remaining at 0.25 h (%)

| smiles-data | unit-info | observed-value |
| --- | --- | --- |
| CCN1CCN(Cc2ccc(Nc3ncc(F)c(-c4cc(F)c5nc(C)n(C(C)C)c5c4)n3)nc2)CC1 | % | 38.9 |
| [2H]c1nc(Nc2ncc(F)c(-c3cc(F)c4nc(C)n(C(C)C)c4c3)n2)c([2H])c([2H])c1CN1CCN(C([2H])([2H])C([2H])([2H])[2H])CC1 | % | 43.3 |
| [2H]C([2H])([2H])C([2H])([2H])N1C([2H])([2H])C([2H])([2H])N(Cc2ccc(Nc3ncc(F)c(-c4cc(F)c5nc(C)n(C(C)C)c5c4)n3)nc2)C([2H])([2H])C1([2H])[2H] | % | 47.9 |
| [2H]C([2H])([2H])C([2H])([2H])N1CCN(Cc2ccc(Nc3ncc(F)c(-c4cc(F)c5nc(C)n(C(C)C)c5c4)n3)nc2)CC1 | % | 42.4 |

###

Target: UniProtKB P06493
Sequence (P06493 whole entry): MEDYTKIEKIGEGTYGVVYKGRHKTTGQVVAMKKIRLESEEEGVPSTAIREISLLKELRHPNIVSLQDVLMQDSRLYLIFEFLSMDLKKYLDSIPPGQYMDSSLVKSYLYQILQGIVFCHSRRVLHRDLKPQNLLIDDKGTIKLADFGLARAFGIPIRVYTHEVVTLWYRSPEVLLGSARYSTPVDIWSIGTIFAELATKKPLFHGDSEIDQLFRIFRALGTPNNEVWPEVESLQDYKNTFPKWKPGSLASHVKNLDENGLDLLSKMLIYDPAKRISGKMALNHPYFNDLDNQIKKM
endpoint-label: IC50

Bench note, UniProtKB P06493: CN(C)C(=O)c1cc2cnc(Nc3ccc(N4CCNCC4)cc3)nc2n1C1CCCC1 , IC50 reads > 1600 nM

###

Molecular target: CDK2/Cyclin A2 (Homo sapiens, UniProt P24941)
Experiment: Inhibition of CDK2/CyclinA (unknown origin) assessed as reduction in TAMRA tagged peptide substrate phosphorylation by fluorescence polarization assay
pIC50: −log10 of the molar value.
endpoint-label: pIC50

CN(C)C(=O)c1cc2cnc(Nc3ccc(N4CCNCC4)cc3)nc2n1C1CCCC1 yielded pIC50 of < 5.85

###

Assay: Clearance in Sprague-Dawley rat at 1 mg/kg, iv by LC-MS/MS analysis
Type: ADME, organism-based
Details: in vivo
endpoint-label: clearance (mL/min/kg)
Give the quantity in mL/min/kg, number only.

[2H]C([2H])([2H])N(C(=O)c1cc2cnc(Nc3ccc(N4CCNCC4)cn3)nc2n1C1CCCC1)C([2H])([2H])[2H] yielded clearance of 37

###

Assay: Clearance in human
Format: ADME
endpoint-label: clearance (mL/min/kg)

| smiles-data | unit-info | clearance |
| --- | --- | --- |
| [2H]C([2H])([2H])C([2H])([2H])N1CCN(Cc2ccc(Nc3ncc(F)c(-c4cc(F)c5nc(C)n(C(C)C)c5c4)n3)nc2)CC1 | mL/min/kg | 156 |
| CCN1CCN(Cc2ccc(Nc3ncc(F)c(-c4cc(F)c5nc(C)n(C(C)C)c5c4)n3)nc2)CC1 | mL/min/kg | 172 |
| [2H]c1nc(Nc2ncc(F)c(-c3cc(F)c4nc(C)n(C(C)C)c4c3)n2)c([2H])c([2H])c1CN1CCN(C([2H])([2H])C([2H])([2H])[2H])CC1 | mL/min/kg | 155 |
| [2H]C([2H])([2H])C([2H])([2H])N1C([2H])([2H])C([2H])([2H])N(Cc2ccc(Nc3ncc(F)c(-c4cc(F)c5nc(C)n(C(C)C)c5c4)n3)nc2)C([2H])([2H])C1([2H])[2H] | mL/min/kg | 130 |

###

Assay: Metabolic stability in rat microsomes assessed as parent compound remaining after 30 mins
Format: ADME, Microsome
Details: read-out: Stability
endpoint-label: remaining at 0.5 h (%)

| smiles-data | observed-value |
| --- | --- |
| [2H]C([2H])([2H])C([2H])([2H])N1CCN(Cc2ccc(Nc3ncc(F)c(-c4cc(F)c5nc(C)n(C(C)C)c5c4)n3)nc2)CC1 | 66.9 |
| CCN1CCN(Cc2ccc(Nc3ncc(F)c(-c4cc(F)c5nc(C)n(C(C)C)c5c4)n3)nc2)CC1 | 61.6 |
| [2H]c1nc(Nc2ncc(F)c(-c3cc(F)c4nc(C)n(C(C)C)c4c3)n2)c([2H])c([2H])c1CN1CCN(C([2H])([2H])C([2H])([2H])[2H])CC1 | 65.9 |
| [2H]C([2H])([2H])C([2H])([2H])N1C([2H])([2H])C([2H])([2H])N(Cc2ccc(Nc3ncc(F)c(-c4cc(F)c5nc(C)n(C(C)C)c5c4)n3)nc2)C([2H])([2H])C1([2H])[2H] | 69.9 |

###

Test: Protein binding in human plasma at 125 mg, po
Type: ADME, cell-free
Conditions: read-out: PPB (converted)
endpoint-label: fraction unbound
Give the value as a plain number.

CC(=O)c1c(C)c2cnc(Nc3ccc(N4CCNCC4)cn3)nc2n(C2CCCC2)c1=O [PALBOCICLIB] yielded fraction unbound of 0.15

###

Target: Calcium/calmodulin-dependent protein kinase type 1 (Homo sapiens)
Sequence (Q14012 whole entry, the tested form may be a part): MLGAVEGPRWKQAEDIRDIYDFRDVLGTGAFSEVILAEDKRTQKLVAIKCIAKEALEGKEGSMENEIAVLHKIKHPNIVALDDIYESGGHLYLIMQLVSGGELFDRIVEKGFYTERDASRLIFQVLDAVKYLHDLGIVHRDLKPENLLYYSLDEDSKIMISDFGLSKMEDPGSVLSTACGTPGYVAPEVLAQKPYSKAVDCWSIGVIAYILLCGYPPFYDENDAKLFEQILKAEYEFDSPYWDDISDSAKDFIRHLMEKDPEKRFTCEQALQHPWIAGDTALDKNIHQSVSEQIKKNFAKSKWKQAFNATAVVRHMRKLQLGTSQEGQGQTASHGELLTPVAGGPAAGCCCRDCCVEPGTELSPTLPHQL
Experiment: Inhibition of wild-type human full length CAMK1A (M1 to L370 residues) expressed in bacterial expression system assessed as residual activity at 50 nM by Kinomescan method relative to control
pKi: −log10 of the molar value.
endpoint-label: pKi

CCN1CCN(Cc2ccc(Nc3ncc(F)c(-c4cc(F)c5nc(C)n(C(C)C)c5c4)n3)nc2)CC1 yielded pKi of > 8.00

###

Assay: Metabolic stability in rat microsomes assessed as parent compound remaining after 5 mins
Format: ADME, Microsome
Details: read-out: Stability
endpoint-label: remaining at 5 min (%)

| molecule | remaining at 5 min / % |
| --- | --- |
| CCN1CCN(Cc2ccc(Nc3ncc(F)c(-c4cc(F)c5nc(C)n(C(C)C)c5c4)n3)nc2)CC1 [ABEMACICLIB] | 94.1 |
| [2H]c1nc(Nc2ncc(F)c(-c3cc(F)c4nc(C)n(C(C)C)c4c3)n2)c([2H])c([2H])c1CN1CCN(C([2H])([2H])C([2H])([2H])[2H])CC1 | 92.7 |
| [2H]C([2H])([2H])C([2H])([2H])N1C([2H])([2H])C([2H])([2H])N(Cc2ccc(Nc3ncc(F)c(-c4cc(F)c5nc(C)n(C(C)C)c5c4)n3)nc2)C([2H])([2H])C1([2H])[2H] | 92.2 |
| [2H]C([2H])([2H])C([2H])([2H])N1CCN(Cc2ccc(Nc3ncc(F)c(-c4cc(F)c5nc(C)n(C(C)C)c5c4)n3)nc2)CC1 | 93.8 |
